Where these numbers come from: patent US20110158985A1

- target_or_system: T1, recombinant C-terminally truncated RSV (A2 strain) F protein (RSV (A2 strain), UniProt P03420 26-524)
- T1 construct: extracellular domain; also called truncated F protein; extracellular domain of the F protein from RSV A2
- T1 sequence (P03420 26-109, chain 1 of 2): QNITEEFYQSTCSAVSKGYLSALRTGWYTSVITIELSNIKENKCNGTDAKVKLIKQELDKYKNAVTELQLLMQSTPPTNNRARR
- T1 sequence (P03420 137-524, chain 2 of 2): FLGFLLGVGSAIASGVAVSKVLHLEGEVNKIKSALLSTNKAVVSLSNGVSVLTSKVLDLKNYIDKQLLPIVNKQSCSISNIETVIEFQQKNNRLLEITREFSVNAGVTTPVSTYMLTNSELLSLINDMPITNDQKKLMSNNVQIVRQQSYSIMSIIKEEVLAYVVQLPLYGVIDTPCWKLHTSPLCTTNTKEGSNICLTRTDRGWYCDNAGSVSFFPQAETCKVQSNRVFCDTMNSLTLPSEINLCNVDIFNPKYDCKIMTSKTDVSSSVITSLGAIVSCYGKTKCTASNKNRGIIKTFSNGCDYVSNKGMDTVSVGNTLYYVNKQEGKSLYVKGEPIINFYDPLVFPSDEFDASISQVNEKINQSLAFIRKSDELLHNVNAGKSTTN
- measurement_description: SPR (BIAcore), IgG over immobilised F
Documented kon across a set of binders
experimental_readout: kon (M⁻¹ s⁻¹)

• A4B4 IgG (antibody, V domains shown) VH: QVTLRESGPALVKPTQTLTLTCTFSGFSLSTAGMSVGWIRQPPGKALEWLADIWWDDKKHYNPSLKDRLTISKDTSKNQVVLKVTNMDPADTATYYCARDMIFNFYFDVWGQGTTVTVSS VL: DIQMTQSPSTLSASVGDRVTITCSASSRVGYMHWYQQKPGKAPKLLIYDTFFLDSGVPSRFSGSGSGTEFTLTISSLQPDDFATYYCFQGSGYPFTFGGGTKVEIKR = 553000
• A12a6 IgG (antibody, V domains shown) VH: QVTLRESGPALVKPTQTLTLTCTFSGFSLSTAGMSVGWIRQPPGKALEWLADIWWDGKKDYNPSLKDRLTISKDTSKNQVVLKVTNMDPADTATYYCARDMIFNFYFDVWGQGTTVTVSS VL: DIQMTQSPSTLSASVGDRVTITCSASSRVGYMHWYQQKPGKAPKLLIYDTFKLSSGVPSRFSGSGSGTEFTLTISSLQPDDFATYYCFQGSGYPFTFGGGTKVEIKR = 460000
